molecular target: Hck (UniProt P08631); experiment: phosphorylation enrichment, bacterial display (enrichment ratio); higher = better substrate or ligand; peptides without Tyr show the background;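 note: 11-residue human phosphosite peptides and single-mutation variants displayed on the E. coli surface, counted by deep sequencing, each peptide's frequency after selection divided by its frequency in the unselected input library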;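 note: frequency after pTyr selection over input frequency; kinase dosed for 20-30% of maximal phosphorylation in three min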
Sequence (P08631 whole entry, looked up): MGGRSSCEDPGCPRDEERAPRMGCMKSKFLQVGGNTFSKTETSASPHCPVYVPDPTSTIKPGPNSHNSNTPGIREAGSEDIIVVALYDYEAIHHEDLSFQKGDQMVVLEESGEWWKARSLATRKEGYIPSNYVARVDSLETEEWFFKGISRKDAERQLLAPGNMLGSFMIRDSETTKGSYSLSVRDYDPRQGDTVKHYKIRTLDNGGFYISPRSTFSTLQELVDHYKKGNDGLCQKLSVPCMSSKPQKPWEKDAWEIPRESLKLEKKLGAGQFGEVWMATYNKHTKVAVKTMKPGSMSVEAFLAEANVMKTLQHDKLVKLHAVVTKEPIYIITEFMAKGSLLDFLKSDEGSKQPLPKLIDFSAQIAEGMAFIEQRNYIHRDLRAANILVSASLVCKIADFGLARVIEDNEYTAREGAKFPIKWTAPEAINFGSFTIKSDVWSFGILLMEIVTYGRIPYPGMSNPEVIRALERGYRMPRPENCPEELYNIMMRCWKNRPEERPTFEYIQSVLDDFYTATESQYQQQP
quantityName: phosphorylation enrichment

# monomerSequence, quantityName, result
data = [
    ("RYMELYDLNRD [BBS2_Y648]", "phosphorylation enrichment", 1.89),
    ("HQKKPYCHAHN [NRAP_Y53]", "phosphorylation enrichment", 1.05),
    ("EEESCYILHSS [PATJ_Y783]", "phosphorylation enrichment", 0.57),
    ("GIADDYDKKKL [EIF1_Y54]", "phosphorylation enrichment", 0.512),
    ("AASTDYFKRGD [PDHA1_Y242_YF]", "phosphorylation enrichment", 0.45),
    ("DFTSRYLSASD [PKHD1_Y828_N830S]", "phosphorylation enrichment", 0.453),
    ("KKHIPYSEHKS [CSNK1G2_Y206_R207S]", "phosphorylation enrichment", 0.565),
    ("EPYEVYRIVPE [IRF8_Y110_K108E]", "phosphorylation enrichment", 4.62),
    ("EGNERYEGFCV [GRIA3_Y451_YF]", "phosphorylation enrichment", 0.554),
    ("RIVTTYIRERE [DNM2_Y463]", "phosphorylation enrichment", 0.874),
    ("VPLATYMRIYK [RPL21_Y30]", "phosphorylation enrichment", 0.477),
    ("ARLDEYIAIAK [RCOR3_Y46_K42R]", "phosphorylation enrichment", 0.447),
    ("IKGNMYYENSY [EGFR_Y112_R108K]", "phosphorylation enrichment", 0.462),
    ("SVESPYGSVTF [NDRG2_Y47_T45S]", "phosphorylation enrichment", 5.03),
]

* * *

biological target: Fes (UniProt P07332); experiment: phosphorylation enrichment, bacterial display (enrichment ratio); higher = better substrate or ligand; peptides without Tyr show the background
Sequence (P07332 whole entry, looked up): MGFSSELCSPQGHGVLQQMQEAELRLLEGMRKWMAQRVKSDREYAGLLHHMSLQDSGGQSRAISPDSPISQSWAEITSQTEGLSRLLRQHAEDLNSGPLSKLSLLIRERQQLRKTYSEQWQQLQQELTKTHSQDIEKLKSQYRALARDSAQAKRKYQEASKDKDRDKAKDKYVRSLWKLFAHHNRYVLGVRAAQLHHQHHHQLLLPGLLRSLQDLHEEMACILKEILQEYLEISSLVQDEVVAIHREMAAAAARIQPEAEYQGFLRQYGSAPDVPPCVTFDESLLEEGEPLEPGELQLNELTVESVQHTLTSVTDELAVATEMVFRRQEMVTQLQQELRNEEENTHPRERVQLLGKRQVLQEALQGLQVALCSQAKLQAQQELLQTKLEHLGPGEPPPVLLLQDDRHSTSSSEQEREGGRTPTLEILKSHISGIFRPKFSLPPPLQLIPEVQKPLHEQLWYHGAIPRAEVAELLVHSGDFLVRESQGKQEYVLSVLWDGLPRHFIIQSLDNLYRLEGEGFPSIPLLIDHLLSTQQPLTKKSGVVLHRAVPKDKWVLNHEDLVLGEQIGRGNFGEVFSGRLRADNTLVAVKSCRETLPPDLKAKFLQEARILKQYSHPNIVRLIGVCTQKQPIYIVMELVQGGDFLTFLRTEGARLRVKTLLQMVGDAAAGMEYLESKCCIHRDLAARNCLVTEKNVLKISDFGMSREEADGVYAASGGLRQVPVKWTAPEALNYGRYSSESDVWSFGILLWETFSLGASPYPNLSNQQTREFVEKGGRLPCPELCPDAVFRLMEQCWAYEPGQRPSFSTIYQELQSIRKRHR
Kindly return condition met if reported phosphorylation enrichment is no lower than 1; return condition not met if it is lower.

# monomerSequence, cat
measured = [
    ("QKMFDYLKEKK [RYR2_Y3780_L3778F]", "condition not met"),
    ("GLRCGYGVLGG [KRTAP20-2_Y15_Y13C]", "condition not met"),
    ("ITKQEYDEAGP [ACTA1_Y364]", "condition met"),
    ("QGIIIYKAAYF [SLC25A4_Y187_R188K]", "condition met"),
    ("SAEKAYHEQFS [TUBA1A_Y282_L286F]", "condition not met"),
    ("HSFQCYGRNEA [ENTPD3_Y262]", "condition met"),
    ("LVQAEYWHDPI [PPT1_Y185]", "condition met"),
    ("RDLRTYIMPAH [PNMT_Y256]", "condition not met"),
    ("SVMAEYGLFGA [VSX2_Y219_YF]", "condition not met"),
    ("FPDFVYKCIKA [DPYSL2_Y479_R481C]", "condition met"),
    ("RGGWVYVLHPT [TRMT61A_Y67]", "condition met"),
    ("QNKEDYDGLKE [GSTO1_Y139_A140D]", "condition met"),
    ("RVDRDYVLKST [HTATIP2_Y111_A116T]", "condition not met"),
]

* * *

target: Fyn (UniProt P06241); test: phosphorylation enrichment, bacterial display (enrichment ratio); higher = better substrate or ligand; peptides without Tyr show the background
Sequence (P06241 whole entry, looked up): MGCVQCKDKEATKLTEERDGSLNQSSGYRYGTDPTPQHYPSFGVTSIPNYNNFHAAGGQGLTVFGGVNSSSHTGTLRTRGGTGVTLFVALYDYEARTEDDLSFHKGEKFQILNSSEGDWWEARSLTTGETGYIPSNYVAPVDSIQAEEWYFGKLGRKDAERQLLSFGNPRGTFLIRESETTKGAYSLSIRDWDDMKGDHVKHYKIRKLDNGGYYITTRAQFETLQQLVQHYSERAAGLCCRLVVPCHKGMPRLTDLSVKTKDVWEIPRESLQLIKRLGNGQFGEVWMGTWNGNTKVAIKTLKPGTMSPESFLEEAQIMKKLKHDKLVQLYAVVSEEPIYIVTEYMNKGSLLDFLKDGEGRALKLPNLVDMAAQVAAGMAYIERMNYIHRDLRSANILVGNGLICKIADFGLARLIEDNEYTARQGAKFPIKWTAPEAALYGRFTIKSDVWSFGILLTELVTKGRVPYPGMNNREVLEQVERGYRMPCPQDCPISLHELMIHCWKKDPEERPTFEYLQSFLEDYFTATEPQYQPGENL
# phosphorylation enrichment listing for each entry below
quantityName: phosphorylation enrichment

# monomerSequence, quantityName, numericReadout
rows = [
    ("GRLFAYPDTHR [CAT_Y358]", "phosphorylation enrichment", 0.421),
    ("VFSTDCFRVGG [NTRK2_Y706_Y706C_YF]", "phosphorylation enrichment", 0.945),
    ("MHDKEYYSVHN [MET_Y1234_Y1230H]", "phosphorylation enrichment", 0.488),
    ("EAEPFYRSLRD [NPHS1_Y1139_YF]", "phosphorylation enrichment", 0.433),
    ("PSDLLYIPDIQ [ITGA2B_Y845_L847P]", "phosphorylation enrichment", 0.917),
    ("FSMGCYEFSLG [HMGCL_Y198_I200F_YF]", "phosphorylation enrichment", 0.881),
    ("GMAHNYRNRSQ [AASS_Y188_S191R]", "phosphorylation enrichment", 0.487),
    ("NKPTVYGVSPN [ABL1_Y226]", "phosphorylation enrichment", 0.55),
    ("GGYTCYCDGKK [PROS1_Y266]", "phosphorylation enrichment", 0.403),
    ("GQDLFYEDEDL [PACS1_Y303]", "phosphorylation enrichment", 0.688),
    ("TTTQAYRVDER [PRKN_Y391]", "phosphorylation enrichment", 0.482),
    ("LLKAGYQGVLR [TTPA_Y100_H101Q]", "phosphorylation enrichment", 0.265),
    ("EFNINYNNEPP [THG1L_Y228_L232P]", "phosphorylation enrichment", 0.626),
    ("SSWKLYPRMLR [HAO1_Y50_R46S]", "phosphorylation enrichment", 0.404),
]

* * *

target: MERTK (UniProt Q12866); test: phosphorylation enrichment, bacterial display (enrichment ratio); higher = better substrate or ligand; peptides without Tyr show the background
Sequence (Q12866 whole entry, looked up): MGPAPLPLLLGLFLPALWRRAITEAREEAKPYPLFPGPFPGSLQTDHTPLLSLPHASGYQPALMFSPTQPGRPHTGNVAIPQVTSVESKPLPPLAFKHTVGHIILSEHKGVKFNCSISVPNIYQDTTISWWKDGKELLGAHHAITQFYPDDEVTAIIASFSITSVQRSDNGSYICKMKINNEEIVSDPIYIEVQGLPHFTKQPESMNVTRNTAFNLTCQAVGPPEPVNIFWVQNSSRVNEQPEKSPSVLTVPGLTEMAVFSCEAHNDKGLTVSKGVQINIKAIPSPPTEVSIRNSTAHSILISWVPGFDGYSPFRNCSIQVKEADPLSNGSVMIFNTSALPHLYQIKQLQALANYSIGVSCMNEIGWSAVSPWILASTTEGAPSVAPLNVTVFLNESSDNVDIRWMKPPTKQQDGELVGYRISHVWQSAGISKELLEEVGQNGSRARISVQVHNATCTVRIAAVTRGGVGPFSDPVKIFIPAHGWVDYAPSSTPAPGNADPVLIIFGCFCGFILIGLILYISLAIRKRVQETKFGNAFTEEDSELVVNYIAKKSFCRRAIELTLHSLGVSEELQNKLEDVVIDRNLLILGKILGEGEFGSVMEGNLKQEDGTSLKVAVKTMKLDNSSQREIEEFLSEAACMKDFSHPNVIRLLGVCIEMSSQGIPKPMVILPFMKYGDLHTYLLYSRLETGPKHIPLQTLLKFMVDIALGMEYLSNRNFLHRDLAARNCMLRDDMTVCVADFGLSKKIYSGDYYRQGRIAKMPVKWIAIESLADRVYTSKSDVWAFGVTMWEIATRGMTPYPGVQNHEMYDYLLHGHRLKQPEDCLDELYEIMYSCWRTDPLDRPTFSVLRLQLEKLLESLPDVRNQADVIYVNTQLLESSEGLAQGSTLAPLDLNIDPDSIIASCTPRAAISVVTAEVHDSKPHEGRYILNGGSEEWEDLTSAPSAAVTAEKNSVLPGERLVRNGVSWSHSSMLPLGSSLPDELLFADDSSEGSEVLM
In this scheme, each record receives a class according to its phosphorylation enrichment; the ranges are band 1 = under 0.4, band 2 = from 0.4 up to 0.5, band 3 = 0.5 and over

# monomerSequence, cat
data = [
    ("FLAVGYHKPRI [IDS_Y225_H229R]", "band 1"),
    ("DSASAYADEVK [ETNPPL_Y189]", "band 3"),
    ("FVSAAYVKKLD [SPTAN1_Y1020_P1017S]", "band 1"),
    ("RVFRDYVLKSA [HTATIP2_Y111_D108Y_YF]", "band 3"),
    ("IEDNEYTAREG [HCK_Y411]", "band 3"),
    ("FQEKSYIKGTS [LCTL_Y331_L326F]", "band 1"),
    ("EEEFEYMNRRR [ERBB3_Y1199_D1194E_YF]", "band 3"),
    ("EEESCYILHSS [PATJ_Y783]", "band 2"),
    ("TEIGQYGNGLK [MORC2_Y100_Q96E]", "band 1"),
    ("YGMSTYITRED [FNDC3B_Y180]", "band 2"),
    ("FDNPIYQKTTE [LDLR_Y828_V827I]", "band 3"),
    ("SHRQDYLVGNK [GSTA1_Y147_G144R]", "band 1"),
    ("SWDKRYCEAGF [ITGA2B_Y197]", "band 2"),
    ("TESALYGCTVV [KIAA1804_Y724_L729V]", "band 3"),
    ("PASLSYLSFEG [EXOSC3_Y143]", "band 3"),
    ("TYGVAYRAKDK [CDK11B_Y453_V452A]", "band 3"),
    ("HRGFLYLAIEY [TEK_Y899_Y897F]", "band 3"),
    ("GMIQAYSSSQR [DES_Y5_S2I]", "band 1"),
    ("CRIELYRVVES [IGFBP1_Y181]", "band 2"),
    ("YFWDGYMPRQY [GSS_Y270_R267W]", "band 3"),
    ("GCVRMYELVHR [GLE1_Y135]", "band 3"),
    ("PSDLLYIPDIQ [ITGA2B_Y845_L847P]", "band 3"),
    ("SHNKFYMLVAH [MFSD8_Y134_R139H_YF]", "band 3"),
    ("AGRTGYDNREI [BCL2_Y9]", "band 2"),
    ("ELAINYQEQAS [SLC9A9_Y591]", "band 2"),
    ("WRGMPYGGRGD [TGM1_Y312_R307W]", "band 1"),
    ("SSDKVCAHQMV [MLH1_Y379_Y379C]", "band 3"),
    ("AFLLLCFNDTH [BMP15_Y235_Y235C]", "band 2"),
    ("IRRWVYPLTPE [EIF2B5_Y319]", "band 2"),
    ("GDPVQYNRTTD [MLPH_Y454]", "band 2"),
    ("LTERDYSFVTT [ACTG2_Y199_G198D]", "band 3"),
    ("AALSAYAAQRP [PTPRN2_Y249]", "band 1"),
    ("CHRQLYHKCTH [F12_Y58_Y53C]", "band 3"),
    ("MYVKSYTIHYS [F5_Y2153]", "band 2"),
    ("EYRFIYMAVQH [PTPN11_Y515_Q510E]", "band 3"),
    ("ASENVYVNIAH [CTSC_Y150]", "band 3"),
    ("EWKNNCPRLRE [OPA1_Y582_Y582C]", "band 2"),
    ("SEPSGYQDNIA [DES_Y363_A360P]", "band 2"),
    ("VRSTEYPCAGL", "band 1"),
    ("RLQEGYDHSYY [ESD_Y258]", "band 3"),
    ("AHLLQYNHQVK [LGALS3_Y221_R224Q]", "band 3"),
    ("CLSHCYFSQIR [MCM3AP_Y873_L870S]", "band 2"),
    ("IYHLSYHHNCE [PDE6B_Y227_L228H]", "band 3"),
    ("NGVSYYINLCQ [IGF2R_Y2025]", "band 2"),
    ("CTSIHYNYMCN [TP53_Y234_T231S]", "band 2"),
]
